Cited source: paper PMC4834746

Assay type: in vivo, rat
condition-info: male, Crl:CD(SD), rat, plasma, po, 20 mg/kg
quantity-measured: Cmax (ng/mL)

(P) CC(=O)Nc1ccc(O)cc1 [APAP, Acetaminophen, reference compound]
(Q) CC(=O)Nc1ccc(O[C@@H]2O[C@H](C(=O)O)[C@@H](O)[C@H](O)[C@H]2O)cc1 [Glu, acetaminophen glucuronide]
Identify the entry with the smaller Cmax: P or Q . Give the chosen item's label as your response.
Q

====

Format: in vivo, rat
condition-info: male, Crl:CD(SD), rat, brain, po, 20 mg/kg
quantity-measured: half-life (min)
Give your result in min as a bare value.

Recorded half-life for CCCCC/C=C\C/C=C\C/C=C\C/C=C\CCCC(=O)Nc1ccc(O)cc1 [AM404, N-(4-hydroxyphenyl) arachidonamide] , please?
18.3
